Provenance of the data: PubChem BioAssay

- EXPERIMENT NOTES: S. cerevisiae growth inhibition in restrictive medium, OD615, pilot screen, restrictive growth control, yeast lifespan reduction project (AID 706);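 also: modified DeaD lifespan yeast strain shifted to restrictive glucose medium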
- EXPERIMENTAL CONTEXT: OD615, 48 h, at 10 µM, hits give high values
VALUE TYPE: growth inhibition (%)
Answers are plain numbers, in %.

Recorded results for 5 compounds are shown here.
COMPOUND	MEASUREMENT
CCCCCn1c(=O)c(C(=O)Nc2ccncc2)c(O)c2ccccc21	100
CCOc1ccc(C2SCC(=O)Nc3c2c(=O)[nH]n3C2CCCCCC2)cc1 (centres undefined)	-3.29
Cc1ccc2c(c1)C1CN(C)CCC1N2C(=O)Cn1nnc(-c2ccccc2F)n1 (centres undefined)	-9.18
C[C@H]1CCC[C@@H](O)CCC/C=C/c2cc(O)cc(O)c2C(=O)O1	-3.65
CCCCP(=O)(O)c1ccccc1	-11.7

Give me growth inhibition for each of these compounds, listed below.
1. C=Cn1ccnc1P(=S)(c1nccn1C=C)C1CCCCC1
2. CN1CCN(C(=O)COc2ccc(-c3nc4ccccc4s3)cc2)CC1
3. CP(C)(=O)CCC(=O)O
4. CC12CN3CC(C)(CN(C1)P3(=O)Oc1ccccc1)C2=O (centres undefined)
5. Cc1ccc(CC2C(=O)N(C)C(=O)N(C)C2=O)s1
6. COc1ccc(C2C(C(=O)N3CCC4(CC3)OCCO4)c3cc(OC)c(OC)cc3C(=O)N2C)cc1 (centres undefined)
7. CCCOC(=O)COc1cc(C)cc2oc(=O)c3c(c12)CCC3

[-2.3, 10.8, -19.2, -8.29, 3.58, -29, -13.8]

----------
- STUDY SYSTEM: Pantothenate synthetase (Mycobacterium tuberculosis (strain ATCC 25618 / H37Rv))
- EXPERIMENT NOTES: Coupled enzyme confirmation of inhibitors against recombinant Mtb PanC (AID 375);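 also: 0% = full reaction with vehicle and 100% = no enzyme background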
- EXPERIMENTAL CONTEXT: coupled enzyme assay; at 10 µM, hits give high values
Calls of active or inactive are those of the source. No rule for the calls is given here.
For each entry below, report its inhibition value.

These recorded examples may help you get a feel for the data.
COMPOUND	inhibition
N#Cc1c(NCc2ccccc2)ccnc1NCc1cccnc1	0% (inactive)
CCOc1ccc(N2CC(C(=O)Nc3ccccc3OC)CC2=O)cc1 (stereo unspecified)	0% (inactive)
c1ccc2c(c1)CC(N1CCCCC1)c1ccccc1N2 (stereo unspecified)	0% (inactive)
Cc1ccc(-c2nn(-c3ccccc3)cc2/C=C(\C#N)c2cccc(C#N)c2)o1	0% (inactive)
CC(C)CN(C(=O)COC(=O)Cc1n[nH]c(=O)c2ccccc12)C1CCS(=O)(=O)C1 (stereo unspecified)	2% (inactive)

As a next step, examine the compound that follows.
Quick check: inhibition of `CCOC(=O)c1c(C)n(OCc2ccccc2)c2ccc3c(no[n+]3[O-])c12` ?
0% (inactive)

----------
So I've got a bunch of compounds here, and I need their viability values.
- EXPERIMENT NOTES: H69AR cell proliferation blockers – human, duplicate replicates, primary screen (AID 580);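 also: 100% = mean luminescence of untreated wells and 0% = no signal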
- EXPERIMENTAL CONTEXT: H69AR lung tumor cells viability, ATP luminescence, 72 h; at 10 µM; hits give low values
Answers are plain numbers, in %.

Worked cases, answers included:
COMPOUND	OUTPUT UNIT	viability
CC(C)C(=O)c1cn(Cc2ccccc2C#N)c2ccccc12	%	82.8
O=C1CC(c2ccccc2)CC(O)=C1C=NCCN1CCN(C(=O)Cc2ccccc2)CC1 (stereo unspecified)	%	92.1
CC1(C)Cc2c(sc3c2C(=O)NC(c2cccnc2)N3)CO1 (stereo unspecified)	%	98.5
C#C[C@]1(O)CC[C@H]2[C@@H]3CCC4=CC(=O)CC[C@]4(C)[C@H]3CC[C@@]21C	%	91.3
CCOC(=O)c1cc2c(cn1)[nH]c1ccccc12	%	88
C=CCn1c(O)c(C=NCCN(C)C)c(=O)[nH]c1=O	%	97.2
COc1ccc(C(=O)C(C)(C)NO)cc1	%	86.5
CCCCn1c(O)c(C=NC2CCCCC2N)c(=O)[nH]c1=O (stereo unspecified)	%	79.3

Provide viability for all items below, preserving their order.
1. NCCc1ccc(O)cc1
2. COc1ccc(OC)c(C2=NOC(C(=O)N3CCC4(CC3)OCCO4)C2)c1 (stereo unspecified)
3. Cc1nn(-c2ccccc2)c2c1CC1(C(=O)N(C)C(=O)N(C)C1=O)C1CCCCN21 (stereo unspecified)

96.2
99
84.7
